// data source = patent US20130196320A1

- system.under.test: T1, XPC4 meganuclease (I-CreI-derived) (Artificial Sequence)
- T1 chain: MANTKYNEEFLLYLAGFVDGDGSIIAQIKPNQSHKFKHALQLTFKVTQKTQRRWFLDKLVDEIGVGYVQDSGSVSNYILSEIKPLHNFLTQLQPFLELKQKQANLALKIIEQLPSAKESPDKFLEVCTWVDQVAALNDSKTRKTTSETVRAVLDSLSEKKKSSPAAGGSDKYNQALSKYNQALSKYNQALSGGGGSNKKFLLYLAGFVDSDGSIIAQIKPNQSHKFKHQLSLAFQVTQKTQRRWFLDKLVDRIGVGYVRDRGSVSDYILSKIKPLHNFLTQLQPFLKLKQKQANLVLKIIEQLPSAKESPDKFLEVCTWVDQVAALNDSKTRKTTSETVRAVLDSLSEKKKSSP
- protocol.summary: FP; 10 mM CaCl2, 150 mM NaCl, pH8, 25 C
metric: pKd
Answers are plain numbers, as −log10 of the molar value.

Inquiry: Look up pKd of XPC4.1 (dsDNA) DNA 1: TCGAGATGTCACACAGAGGTACGA DNA 2: TCGTACCTCTGTGTGACATCTCGA and report it.
Reply text: 6.97
